Study Target: T1, GRIP1_3, Q9Y3R0
T1 sequence (Q9Y3R0 247-346, limits assumed, looked up): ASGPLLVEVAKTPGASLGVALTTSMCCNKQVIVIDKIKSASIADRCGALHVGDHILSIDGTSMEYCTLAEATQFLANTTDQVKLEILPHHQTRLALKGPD
Method: holdup assay
Parameters: key: below the threshold = too weak to quantify, mostly under pKd 3.1 to 4
Condition: plain residues with an end cap or a label only (N-terminal biotin on a linker: ado-ado)

Binder | pKd
GEDRSPPTAL [MKNK1, Q9BUB5] | below the threshold
PTPDLPQTRV [KLHDC7A, Q5VTJ3] | below the threshold
NTLNRKTTPV [CACNG8, Q8WXS5] | below the threshold
MQHQRTHTRV [ZSCAN30, Q86W11] | below the threshold

Cited source: paper PMC9482650
